biological target: AgSla1-D1-D2; test: SPOT peptide array binding signal intensity (averaged, normalized) (arbitrary units (background-subtracted, floor 0; scale differs between SH3 domains)); higher = stronger binding of the SH3 domain to the peptide
Metric name: SPOT peptide array binding signal intensity

| Binder | Observed value |
| --- | --- |
| HAPPLPPTAPPPPSL | ≤ 0 |
| AAAPKHAPPPVPNET | ≤ 0 |
| DLFKPLPEPPTELGR | ≤ 0 |
